Data provenance is the supplement of paper PMC4862054.

test system: MDA-MB-453; assay: normalised viability (% of control), CellTiter-Blue; higher = more viable cells (about 100 = DMSO control); details: incubation time: 72 h

- compound: "CCNC(=O)CCC/C=C\\C[C@@H]1[C@@H](/C=C/[C@@H](O)CCc2ccccc2)[C@H](O)C[C@@H]1O [Bimatoprost] (5500 nM)"
  normalised viability: "106%"
- compound: "CO[C@@H]1[C@H](N(C)C(=O)c2ccccc2)C[C@H]2O[C@]1(C)n1c3ccccc3c3c4c(c5c6ccccc6n2c5c31)C(=O)NC4 [Midostaurin] (10000 nM)"
  normalised viability: "61.4%"
- compound: "CCNC(=O)c1noc(-c2cc(C(C)C)c(O)cc2O)c1-c1ccc(CN2CCOCC2)cc1 [NVP-AUY922] (1000 nM)"
  normalised viability: "7.53%"

* * *

Each entry below carries its reported normalised viability.
system: SK-BR-3; test: normalised viability (% of control), CellTiter-Blue; higher = more viable cells (about 100 = DMSO control); conditions: 10000 nM; incubation time: 72 h
measure: normalised viability (%)

- compound: "COc1ccc(S(=O)(=O)Nc2cccnc2Nc2ccc(O)cc2)cc1 [ABT-751]"
  recorded.measurement: 15.6
- compound: "CC(C)(C)NC(=O)[C@H]1CC[C@H]2[C@@H]3CC[C@H]4NC(=O)C=C[C@]4(C)[C@H]3CC[C@]12C [Finasteride]"
  recorded.measurement: 102
- compound: "CO[C@@]12[C@H](COC(N)=O)C3=C(C(=O)C(C)=C(N)C3=O)N1C[C@@H]1N[C@@H]12 [Mitomycin C]"
  recorded.measurement: 10.4
- compound: "CC(O)(CS(=O)(=O)c1ccc(F)cc1)C(=O)Nc1ccc(C#N)c(C(F)(F)F)c1 (configuration not stated) [Bicalutamide]"
  recorded.measurement: 114
- compound: "CN(Cc1cnc2nc(N)nc(N)c2n1)c1ccc(C(=O)N[C@@H](CCC(=O)O)C(=O)O)cc1 [Methotrexate]"
  recorded.measurement: 52.8
- compound: "CO[C@@H]1[C@H](N(C)C(=O)c2ccccc2)C[C@H]2O[C@]1(C)n1c3ccccc3c3c4c(c5c6ccccc6n2c5c31)C(=O)NC4 [Midostaurin]"
  recorded.measurement: 39.5
- compound: "CC[C@H](CO)Nc1nc(NCc2ccccc2)c2ncn(C(C)C)c2n1 [Roscovitine]"
  recorded.measurement: 87

* * *

tested on: CAL-85-1; assay: normalised response (% of control), CellTiter-Glo; higher = more viable cells (100 = DMSO, 0 = benzethonium chloride kill control); conditions: incubation time: 72 h
Each entry below carries its reported normalised response.
measure: normalised response (%)

- compound: "O=[N+]([O-])c1ccc2c(c1)S(=O)(=O)C=C2 [Stattic] (50000 nM)"
  measure: "normalised response"
  recorded.measurement: -0.24
- compound: "CC1(C)CCC(c2ccc(Cl)cc2)=C(CN2CCN(c3ccc(C(=O)NS(=O)(=O)c4ccc(N[C@H](CCN5CCOCC5)CSc5ccccc5)c(S(=O)(=O)C(F)(F)F)c4)cc3)CC2)C1 [Navitoclax] (10000 nM)"
  measure: "normalised response"
  recorded.measurement: 86.2
- compound: "COc1cc(Nc2c(C#N)cnc3cc(OCCCN4CCN(C)CC4)c(OC)cc23)c(Cl)cc1Cl [Bosutinib] (10000 nM)"
  measure: "normalised response"
  recorded.measurement: 0.33
- compound: "C/C(=C\\c1csc(C)n1)[C@@H]1C[C@@H]2O[C@]2(C)CCC[C@H](C)[C@H](O)[C@@H](C)C(=O)C(C)(C)[C@@H](O)CC(=O)N1 [Ixabepilone] (1000 nM)"
  measure: "normalised response"
  recorded.measurement: 26.1
- compound: "CC(C)(C)c1nc(-c2cccc(NS(=O)(=O)c3c(F)cccc3F)c2F)c(-c2ccnc(N)n2)s1 [Dabrafenib] (2500 nM)"
  measure: "normalised response"
  recorded.measurement: 108
- compound: "CN(Cc1cnc2nc(N)nc(N)c2n1)c1ccc(C(=O)N[C@@H](CCC(=O)O)C(=O)O)cc1 [Methotrexate] (50000 nM)"
  measure: "normalised response"
  recorded.measurement: 49.6
- compound: "CNC(=O)c1ccccc1Sc1ccc2c(/C=C/c3ccccn3)n[nH]c2c1 [Axitinib] (10000 nM)"
  measure: "normalised response"
  recorded.measurement: 120
- compound: "CC1(COc2ccc3c(c2)ncn3-c2ccc3cccc(N4CCC(N)CC4)c3n2)COC1 [Crenolanib] (10000 nM)"
  measure: "normalised response"
  recorded.measurement: 1.52
- compound: "Cc1nc(C(=O)NCC(=O)O)c(O)c2ccc(Oc3ccccc3)cc12 [FG-4592] (10000 nM)"
  measure: "normalised response"
  recorded.measurement: 101
- compound: "COc1ccc(S(=O)(=O)Nc2cccnc2Nc2ccc(O)cc2)cc1 [ABT-751] (10000 nM)"
  measure: "normalised response"
  recorded.measurement: 40.9
- compound: "CN[C@@H](C)C(=O)N[C@H]1CN(C(=O)CC(C)C)CC[C@H]2CC[C@@H](C(=O)NC(c3ccccc3)c3ccccc3)N2C1=O [AT-406] (10000 nM)"
  measure: "normalised response"
  recorded.measurement: 41.9
- compound: "CC(C)C[C@H](NC(=O)[C@@H](COC(C)(C)C)NC(=O)[C@H](Cc1ccc(O)cc1)NC(=O)[C@H](CO)NC(=O)[C@H](Cc1c[nH]c2ccccc12)NC(=O)[C@H](Cc1cnc[nH]1)NC(=O)[C@@H]1CCC(=O)N1)C(=O)N[C@@H](CCCNC(=N)N)C(=O)N1CCC[C@H]1C(=O)NNC(N)=O [Goserelin] (10000 nM)"
  measure: "normalised response"
  recorded.measurement: 93.8
- compound: "Cc1cn(-c2cc(NC(=O)c3ccc(C)c(Nc4nccc(-c5cccnc5)n4)c3)cc(C(F)(F)F)c2)cn1 [Nilotinib] (10000 nM)"
  measure: "normalised response"
  recorded.measurement: 104
- compound: "Cc1cc(Nc2nc(N[C@@H](C)c3ncc(F)cn3)ncc2Cl)[nH]n1 [AZD1480] (1000 nM)"
  measure: "normalised response"
  recorded.measurement: 96
- compound: "CC(C)(C)NC(=O)[C@H]1CC[C@H]2[C@@H]3CC[C@H]4NC(=O)C=C[C@]4(C)[C@H]3CC[C@]12C [Finasteride] (10000 nM)"
  measure: "normalised response"
  recorded.measurement: 96.5
- compound: "C=CCn1c(=O)c2cnc(Nc3ccc(N4CCN(C)CC4)cc3)nc2n1-c1cccc(C(C)(C)O)n1 [MK1775] (10000 nM)"
  measure: "normalised response"
  recorded.measurement: 11.4
- compound: "CC(=O)[C@]1(O)Cc2c(O)c3c(c(O)c2[C@@H](O[C@H]2C[C@H](N)[C@H](O)[C@H](C)O2)C1)C(=O)c1ccccc1C3=O [Idarubicin] (1000 nM)"
  measure: "normalised response"
  recorded.measurement: 3.35
- compound: "Cn1cc(C2=C(c3cn(C4CCN(Cc5ccccn5)CC4)c4ccccc34)C(=O)NC2=O)c2ccccc21 [Enzastaurin] (10000 nM)"
  measure: "normalised response"
  recorded.measurement: 85.1
